# System: human red cells
# DETAILS: human, 30 min, 2 mM, pH 7.4
Listed compounds paired with reported [sulfonamide] in red blood cells, HPLC
// return numeric value only (unit: µM, not printed)

- Cc1cc(C)[n+](-c2ccc(S(=O)(=O)Nc3nnc(S(N)(=O)=O)s3)cc2)c(C)c1C: 0.3
- CCc1cc(-c2ccccc2)cc(CC)[n+]1-c1ccc(S(=O)(=O)Nc2nnc(S(N)(=O)=O)s2)cc1: 1.0
- Nc1ccc(S(=O)(=O)Nc2nnc(S(N)(=O)=O)s2)cc1: 125

Request: Let me know recorded [sulfonamide] in red blood cells, HPLC for Cc1cc(C)[n+](-c2ccc(S(=O)(=O)Nc3nnc(S(N)(=O)=O)s3)cc2)c(C)c1 , thanks.
Response: 0.3

----------
# TEST_SYSTEM: hCA II (Homo sapiens, UniProt P00918)
# Construct: made in house; host or cells: Escherichia coli BL21 (DE3)
# PROCEDURE_DETAILS: CA esterase activity assay, isozyme hCA II
# Type: biochemical
# DETAILS: Table 2; human (cloned) isozymes; read-out: KI hCA II
pKi: −log10 of the molar value.
Rule: pKi of 7 or more gives Fulfilled; anything lower gives Not fulfilled.

Answered examples (5):
• CCc1cc(-c2ccccc2)cc(-c2ccccc2)[n+]1Cc1ccc(S(N)(=O)=O)cc1.[O-][Cl+3]([O-])([O-])[O-] [Compound 47] = Not fulfilled
• Cc1cc(C)[n+](CCc2ccc(S(N)(=O)=O)cc2)c(C(C)C)c1 [Compound 56] = Fulfilled
• CCc1cc(-c2ccccc2)cc(-c2ccccc2)[n+]1-c1ccc(S(N)(=O)=O)cc1 [Compound 33] = Not fulfilled
• Cc1cc(-c2ccccc2)cc(-c2ccccc2)[n+]1-c1ccc(S(N)(=O)=O)cc1 [Compound 32] = Not fulfilled
• CCCCc1cc(-c2ccccc2)cc(-c2ccccc2)[n+]1-c1ccc(S(N)(=O)=O)cc1 [Compound 36] = Not fulfilled

Now look at this entry.
Request: Form field: pKi at least 7? Entry: Cc1cc(C(C)C)[n+](CCc2ccc(S(N)(=O)=O)cc2)c(C(C)C)c1 [Compound 57]
Response: Fulfilled

----------
# TEST_SYSTEM: hCA II (Homo sapiens)
# Construct: made in house; host or cells: Escherichia coli BL21 (DE3)
# PROCEDURE_DETAILS: CA esterase activity assay, isozyme hCA II
# Format: biochemical
# DETAILS: Table 2; human (cloned) isozymes; read-out: KI hCA II
pKi: −log10 of the molar value.
Rule: pKi of 7 or more gives Fulfilled; anything lower gives Not fulfilled.

Answered examples (3):
- Cc1cc(-c2ccccc2)cc(C)[n+]1-c1ccc(S(N)(=O)=O)cc1: Fulfilled
- CCCCc1cc(-c2ccccc2)cc(-c2ccccc2)[n+]1CCc1ccc(S(N)(=O)=O)cc1: Not fulfilled
- CCCc1cc(-c2ccccc2)cc(-c2ccccc2)[n+]1Cc1ccc(S(N)(=O)=O)cc1: Not fulfilled

Request: Form field: pKi at least 7? Entry: Cc1cc(C)[n+](-c2ccc(S(N)(=O)=O)cc2)c(C)c1C
Response: Fulfilled

----------
Listed molecules paired with reported log10 Ki
# TEST_SYSTEM: bCA IV (Bos taurus, UniProt Q95323)
# Construct: CA IV was isolated from bovine lung microsomes as described by Maren et al; from tissue; host or cells: bovine lung microsomes
# Sequence (Q95323 19-284): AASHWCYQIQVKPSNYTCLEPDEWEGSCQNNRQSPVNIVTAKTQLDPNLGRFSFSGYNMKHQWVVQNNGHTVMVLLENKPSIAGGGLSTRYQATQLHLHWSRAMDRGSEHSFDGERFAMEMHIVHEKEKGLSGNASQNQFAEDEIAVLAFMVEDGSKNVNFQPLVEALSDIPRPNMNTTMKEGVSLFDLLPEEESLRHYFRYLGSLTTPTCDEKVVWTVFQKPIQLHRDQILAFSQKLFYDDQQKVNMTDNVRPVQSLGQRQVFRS
# PROCEDURE_DETAILS: CA esterase activity assay, isozyme bCA IV
# Type: biochemical, bovine
# DETAILS: Table 2; from bovine lung microsomes; read-out: KI bCA IV
Transform log10 | Measure Ki | Unit nM

Please review the entries below; each comes with its answer.
- CC(C)c1cc(-c2ccccc2)cc(-c2ccccc2)[n+]1-c1ccc(S(N)(=O)=O)cc1 [Compound 35]: 3.32
- CCCCc1cc(-c2ccccc2)cc(-c2ccccc2)[n+]1CCc1ccc(S(N)(=O)=O)cc1 [Compound 66]: 3.30
- Cc1cc(C(C)C)[n+](Cc2ccc(S(N)(=O)=O)cc2)c(C(C)C)c1 [Compound 41]: 2.16
- CCCc1cc(-c2ccccc2)cc(CCC)[n+]1Cc1ccc(S(N)(=O)=O)cc1 [Compound 44]: 2.21
- Cc1cc(C)[n+](CCc2ccc(S(N)(=O)=O)cc2)c(C)c1C [Compound 70]: 1.32

Request: Let me know recorded log10 Ki for Cc1cc(C(C)C)[n+](CCc2ccc(S(N)(=O)=O)cc2)c(C(C)C)c1 [Compound 57] , thanks.
Response: 1.85

Request: Let me know recorded log10 Ki for Cc1cc(C)[n+](Cc2ccc(S(N)(=O)=O)cc2)c(C)c1C [Compound 54] , thanks.
Response: 1.71

Request: Let me know recorded log10 Ki for CCc1cc(-c2ccccc2)cc(-c2ccccc2)[n+]1Cc1ccc(S(N)(=O)=O)cc1.[O-][Cl+3]([O-])([O-])[O-] [Compound 47] , thanks.
Response: 2.99

Request: Let me know recorded log10 Ki for Cc1cc(C)[n+](CCc2ccc(S(N)(=O)=O)cc2)c(C(C)C)c1 [Compound 56] , thanks.
Response: 1.51

----------
# TEST_SYSTEM: hCA IX (Homo sapiens, UniProt Q16790)
# PROCEDURE_DETAILS: CA CO2 hydrase activity assay, tumor-associated isozyme hCA IX
# DETAILS: read-out: KI against CA IX
VALUE_TYPE: pKi
Scale for pKi: -log10 of concentration given in mol/L; no unit attached.

Request: Let me know recorded pKi for Nc1ccc(S(=O)(=O)Nc2nnc(S(N)(=O)=O)s2)cc1 , thanks.
Response: 7.42

----------
Listed compounds paired with reported pKi
# TEST_SYSTEM: hCA II (Homo sapiens, UniProt P00918)
# Construct: made in house; host or cells: Escherichia coli BL21 (DE3)
# PROCEDURE_DETAILS: CA esterase activity assay, isozyme hCA II
# Format: biochemical
# DETAILS: read-out: KI against CA II
pKi: −log10 of the molar value.

Please review the entries below; each comes with its answer.
* Cc1cc(-c2ccccc2)cc(C)[n+]1-c1ccc(S(=O)(=O)Nc2nnc(S(N)(=O)=O)s2)cc1 | 8.79 to 9.70
* CCc1cc(-c2ccccc2)cc(-c2ccccc2)[n+]1-c1ccc(S(=O)(=O)Nc2nnc(S(N)(=O)=O)s2)cc1 | 8.79 to 9.70
* Cc1cc(-c2ccccc2)[n+](-c2ccc(S(=O)(=O)Nc3nnc(S(N)(=O)=O)s3)cc2)c(-c2ccccc2)c1 | 8.22 to 8.50

Please examine the following record next.
Request: Let me know recorded pKi for Cc1cc(C)[n+](-c2ccc(S(=O)(=O)Nc3nnc(S(N)(=O)=O)s3)cc2)c(C)c1 , thanks.
Response: 8.79 to 9.70

----------
# TEST_SYSTEM: hCA II (Homo sapiens, UniProt P00918)
# Construct: made in house; host or cells: Escherichia coli BL21 (DE3)
# PROCEDURE_DETAILS: CA esterase activity assay, isozyme hCA II
# Type: biochemical
# DETAILS: read-out: KI hCA II
Listed molecules paired with reported Ki
// return numeric value only (unit: nM, not printed)

Please review the entries below; each comes with its answer.
• Cc1cc(C)[n+](Cc2ccc(S(N)(=O)=O)cc2)c(C)c1C [Compound 54] = 30
• Cc1cc(-c2ccccc2)cc(-c2ccccc2)[n+]1Cc1ccc(S(N)(=O)=O)cc1 [Compound 46] = 121
• NS(=O)(=O)c1ccc(CC[n+]2c(-c3ccccc3)cccc2-c2ccccc2)cc1 [Compound 69] = 420

Please examine the following record next.
Request: Let me know recorded Ki for NS(=O)(=O)c1ccc(-[n+]2c(-c3ccccc3)cc(-c3ccccc3)cc2-c2ccccc2)cc1 [Compound 37] , thanks.
Response: 510

----------
Listed molecules paired with reported pKi
# TEST_SYSTEM: bCA IV (Bos taurus, UniProt Q95323)
# Construct: CA IV was isolated from bovine lung microsomes as described by Maren et al; from tissue; host or cells: bovine lung microsomes
# Sequence (Q95323 19-284): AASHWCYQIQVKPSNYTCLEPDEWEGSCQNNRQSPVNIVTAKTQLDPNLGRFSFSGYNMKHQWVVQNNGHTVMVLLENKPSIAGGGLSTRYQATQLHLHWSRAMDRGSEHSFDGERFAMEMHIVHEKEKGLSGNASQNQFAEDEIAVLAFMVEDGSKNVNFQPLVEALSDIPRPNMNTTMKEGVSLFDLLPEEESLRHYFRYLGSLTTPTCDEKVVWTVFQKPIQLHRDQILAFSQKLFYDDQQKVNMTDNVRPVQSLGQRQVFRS
# PROCEDURE_DETAILS: CA esterase activity assay, isozyme bCA IV
# Format: biochemical, bovine
# DETAILS: Table 2; from bovine lung microsomes; read-out: KI bCA IV
Scale for pKi: -log10 of concentration given in mol/L; no unit attached.

Please review the entries below; each comes with its answer.
* Cc1cc(-c2ccccc2)cc(-c2ccccc2)[n+]1Cc1ccc(S(N)(=O)=O)cc1 [Compound 46] | 6.79
* CC(C)c1cc(-c2ccccc2)cc(C(C)C)[n+]1-c1ccc(S(N)(=O)=O)cc1 [Compound 31] | 7.05
* NS(=O)(=O)c1ccc(CC[n+]2c(-c3ccccc3)cccc2-c2ccccc2)cc1 [Compound 69] | 5.72
* CCCCc1cc(-c2ccccc2)cc(-c2ccccc2)[n+]1-c1ccc(S(N)(=O)=O)cc1 [Compound 36] | 5.67
* CCCCc1cc(-c2ccccc2)cc(-c2ccccc2)[n+]1Cc1ccc(S(N)(=O)=O)cc1.[O-][Cl+3]([O-])([O-])[O-] [Compound 50] | 5.68
* Cc1cc(C)[n+](-c2ccc(S(N)(=O)=O)cc2)c(C)c1 [Compound 27] | 6.54
* NS(=O)(=O)c1ccc(C[n+]2c(-c3ccccc3)cc(-c3ccccc3)cc2-c2ccccc2)cc1 [Compound 52] | 5.71

Please examine the following record next.
Request: Let me know recorded pKi for CCc1cc(-c2ccccc2)cc(-c2ccccc2)[n+]1-c1ccc(S(N)(=O)=O)cc1 [Compound 33] , thanks.
Response: 5.89
